Assay: Persistence over time, brain samples postmortem (Example 18)
Type: in vivo, mice
Conditions: mouse, brain, oral; 4 mg/kg administered, died at 24 h; number in brackets = mice with a value; read-out: Average results for 3 mice - brain samples
OBSERVABLE: concentration at 24 h
The answer consists of two parts: a number and, after it, its unit.

Which measured concentration at 24 h value corresponds to CCCCCc1cc(O)c2c(c1)OC(C)(C)[C@@H]1CCC(C)=C[C@@H]21 [THC, Δ-9-tetrahydrocannabinol] ? 14.1 ng/g

====

Assay: Persistence over time, blood samples (Example 18)
Type: in vivo, mice
Conditions: 4 mg/kg administration, Time 3 h; label = analyte
Method: Blood samples from each mouse were collected at each time point for the pharmacokinetics tests. For 6 h after administrating of all tested drugs, and after testing their WRL on the hot plate, half the mice (n=3) of each group were sacrificed, and the liver and brain of each animal were taken for pharmacokinetics tests. From the remaining mice, blood samples were acquired at 12 h after administration for pharmacokinetics tests. […]
Answer each item with its documented Average results, blood samples.

Worked examples follow.
CCCCCc1cc(O)c2c(c1)OC(C)(C)[C@@H]1CCC(C(=O)O)=C[C@@H]21 :: 1.39 (4/4) ng/mL
CCCCCc1cc(O)c2c(c1)OC(C)(C)[C@@H]1CCC(CO)=C[C@@H]21 :: 0.18 (2/2) ng/mL
[2H]C([2H])([2H])C1=C[C@H]2c3c(O)cc(CCCCC)cc3OC(C)(C)[C@@H]2CC1([2H])[2H] [9-CD3-(8-D2)-THC] :: 1.44 (4/4) ng/mL

Can you look up the measured Average results, blood samples of CCCCCc1cc(O)c2c(c1)OC(C)(C)[C@@H]1CCC(C)=C[C@@H]21 [THC, Δ-9-tetrahydrocannabinol] for me? 2.78 (4/6) ng/mL
